test system: barnyardgrass (Echinochloa crus-galli); test: Test A pre/postemergence; type: in vivo; settings: Preemergence, 125 g ai/ha; 0 to 100 scale where 0 is no effect and 100 is complete control; approximately ten days
Recorded Plant response rating, Barnyardgrass for the following molecules
Give a plain numeric answer without units written out.

// below: answered molecules
| molecule | assayValue |
| --- | --- |
| CCOC(=O)c1nc(-c2ccc(C)cc2)nc(N)c1Br [Compound 61] | 0 |
| Nc1nc(C2CC2)nc(C(=O)OCC2CO2)c1Cl (centres unmarked) [Compound 140] | 70 |
| Nc1nc(-c2ccc(Cl)cc2)nc(C(=O)O)c1Br [Compound 88] | 10 |
| COC(=O)c1nc(-c2ccc(S(C)(=O)=O)cc2)nc(N)c1Cl [Compound 122] | 0 |

The recorded Plant response rating, Barnyardgrass for CCOC(=O)c1nc(-c2ccc(Cl)cc2)nc(N)c1I [Compound 137] is 0

----------
test system: lambsquarters (Chenopodium album); experiment: Test B pre/postemergence; assay type: in vivo; conditions: Preemergence, 125 g ai/ha; scale 0 to 100 (0 no effect, 100 complete control)
testReadout: Plant response rating, Lambsquarters
Give a plain numeric answer without units written out.

// below: answered molecules
| molecule | systemUnderTest | Plant response rating, Lambsquarters |
| --- | --- | --- |
| CCCOC(=O)c1nc(C2CC2)nc(N)c1Br | lambsquarters (Chenopodium album) | 90 |
| COC(=O)c1nc(C2CC2)nc(N=CN(C)C)c1Br | lambsquarters (Chenopodium album) | 100 |
| COC(=O)c1nc(-c2ccc(F)cc2)nc(N)c1Br | lambsquarters (Chenopodium album) | 80 |
| CCOC(=O)C(C)c1nc(C2CC2)nc(N)c1Br (stereo not shown) | lambsquarters (Chenopodium album) | 40 |
| Nc1nc(C2CC2)nc(C=NO)c1Br | lambsquarters (Chenopodium album) | 90 |

Proceed to the following item.
Observed Plant response rating, Lambsquarters, lambsquarters (Chenopodium album), CCOC(=O)C(OC(C)=O)c1nc(C2CC2)nc(N)c1Br (stereo not shown) : 90

----------
system: barnyardgrass (Echinochloa crus-galli); assay: Test B pre/postemergence; format: in vivo; conditions: Postemergence, 125 g ai/ha; scale 0 to 100 (0 no effect, 100 complete control)
Recorded Barnyardgrass plant response rating for the following molecules

// below: answered molecules
| compoundSmiles | Barnyardgrass plant response rating |
| --- | --- |
| CCOC(=O)c1nc(C2CC2)nc(N2CCCC2)c1Br | 0 |
| CC(=O)NN=Cc1nc(C2CC2)nc(N)c1Br | 20 |
| COC(OC)c1nc(C2CC2)nc(N)c1F | 0 |
| CCOC(=O)c1nc(C2CC2)nc(NNC(C)=O)c1Br | 0 |
| CCOC(=O)c1nc(C2CC2)nc(NOC)c1Br | 30 |

The recorded Barnyardgrass plant response rating for `CC(C)OC(=O)c1nc(C2CC2)nc(N)c1Br` is 30

The recorded Barnyardgrass plant response rating for `CNN=Cc1nc(C2CC2)nc(N)c1Br` is 30

The recorded Barnyardgrass plant response rating for `Nc1nc(C2CC2)nc(C(=O)[O-])c1Br.[Na+]` is 80

The recorded Barnyardgrass plant response rating for `COC(=O)c1nc(C2CC2)nc(N=CN(C)C)c1Br` is 80

The recorded Barnyardgrass plant response rating for `CCOC(=O)c1nc(C2CC2)nc(NOCc2ccccc2)c1Br` is 0

The recorded Barnyardgrass plant response rating for `CC(C)COC(=O)c1nc(C2CC2)nc(N)c1Br` is 20

The recorded Barnyardgrass plant response rating for `CCOC(=O)C(Cl)(Cl)c1nc(C2CC2)nc(N)c1Br` is 0

The recorded Barnyardgrass plant response rating for `COC(=O)c1nc(-c2ccc(F)cc2)nc(N)c1Br` is 10

The recorded Barnyardgrass plant response rating for `CCCOC(=O)c1nc(C2CC2)nc(N)c1Cl` is 90

----------
tested on: cocklebur (Xanthium strumarium); test: Test C pre/postemergence; type: in vivo; conditions: Xanthium strumarium, post-emergence, Postemergence, 250 g ai/ha; scale 0 to 100; read-out: Plant response rating, Cocklebur
Recorded pest or weed control at 250 g/ha for the following compounds
Note: unit % is implicit; provide only the numeric part.

// below: answered compounds
| compoundSmiles | assayValue |
| --- | --- |
| COC(=O)c1nc(C2CC2)nc(N)c1I | 30 |
| COC(=O)c1nc(C2CC2)nc(N)c1Cl | 100 |
| CCOC(=O)c1nc(C2CC2)nc(N)c1Cl | 100 |

Proceed to the following item.
Observed pest or weed control at 250 g/ha, cocklebur (Xanthium strumarium), `COC(=O)c1nc(C(C)C)nc(N)c1Br` : 90

----------
test system: velvetleaf (Abutilon theophrasti); assay: Test B pre/postemergence; format: in vivo; conditions: Preemergence, 125 g ai/ha; scale 0 to 100 (0 no effect, 100 complete control)
Classify: y when Plant response rating, Velvetleaf is strictly less than 60; n when Plant response rating, Velvetleaf is not.

| compound | systemUnderTest | assignedClass |
| --- | --- | --- |
| CCCOC(=O)c1nc(C2CC2)nc(N)c1Cl [Compound 75] | velvetleaf (Abutilon theophrasti) | n |
| CCOC(=O)c1nc(C2CC2)nc(N2CCCC2)c1Br [Compound 56] | velvetleaf (Abutilon theophrasti) | y |
| CCOC(=O)Cc1nc(C2CC2)nc(N=CN(C)C)c1Br [Compound 33] | velvetleaf (Abutilon theophrasti) | n |

Now, please, on to the next compound.
[ask] Consider CCOC(=O)c1nc(C2CC2)nc(NOCC(=O)O)c1Br [Compound 125] . Does its Plant response rating, Velvetleaf lie strictly below 60?
[reply] y

----------
Recorded pest or weed control at 500 g/ha for the following compounds
test system: velvetleaf (Abutilon theophrasti); test: Test B pre/postemergence; type: in vivo; details: Abutilon theophrasti, pre-emergence, Preemergence, 500 g ai/ha; scale 0 to 100 (0 no effect, 100 complete control); read-out: Velvetleaf plant response rating
Note: unit % is implicit; provide only the numeric part.

// below: answered compounds
| compoundSmiles | pest or weed control at 500 g/ha [%] |
| --- | --- |
| Nc1nc(C2CC2)nc(CO)c1Br | 80 |
| COC(=O)c1nc(C2CC2)nc(N)c1Cl | 100 |
| CCOC(=O)c1nc(-c2ccccc2)nc(N)c1Br | 40 |

Proceed to the following item.
The recorded pest or weed control at 500 g/ha for `COC(=O)c1nc(C(C)C)nc(N)c1Br` is 70

----------
tested on: giant foxtail (Setaria faberii); experiment: Test C pre/postemergence; type: in vivo; details: Setaria faberi, pre-emergence; Preemergence, 125 g ai/ha; scale 0 to 100; read-out: Plant response rating, Foxtail, Giant
Excerpt: […]
testReadout: pest or weed control at 125 g/ha (%)
Note: unit % is implicit; provide only the numeric part.

The recorded pest or weed control at 125 g/ha for CCOC(=O)c1nc(-c2ccc(Cl)cc2)nc(N)c1Cl [Compound 64] is 0

The recorded pest or weed control at 125 g/ha for COC(=O)c1nc(C2CC2)nc(N)c1Cl [Compound 9] is 75

The recorded pest or weed control at 125 g/ha for CCOC(=O)c1nc(C2CC2)nc(N)c1Cl [Compound 4] is 40

The recorded pest or weed control at 125 g/ha for Nc1nc(C2CC2)nc(C(=O)[O-])c1Cl.[Na+] [Compound 77, monosodium salt] is 0

----------
Recorded Plant response rating, Nutsedge, Purple for the following compounds
test system: purple nutsedge (Cyperus rotundus); test: Test G pre/postemergence; assay type: in vivo; details: Preemergence, 125 g ai/ha, scale 0-100

| compound | Plant response rating, Nutsedge, Purple |
| --- | --- |
| CCOC(=O)c1nc(C2CC2)nc(N)c1Br [Compound 1] | 100 |

The recorded Plant response rating, Nutsedge, Purple for CCOC(=O)c1nc(C2CC2)nc(N)c1Cl [Compound 4] is 100

The recorded Plant response rating, Nutsedge, Purple for Nc1nc(C2CC2)nc(C(=O)OCc2ccccc2)c1Br [Compound 22] is 40

The recorded Plant response rating, Nutsedge, Purple for Nc1nc(C2CC2)nc(C(=O)[O-])c1Cl.[Na+] [Compound 77] is 100

----------
test system: barnyardgrass (Echinochloa crus-galli); experiment: Test A pre/postemergence; format: in vivo; conditions: Postemergence, 500 g ai/ha; 0 to 100 scale (0 no effect, 100 complete control)
Recorded Plant response rating, Barnyardgrass for the following molecules
Give a plain numeric answer without units written out.

// below: answered molecules
| molecule | systemUnderTest | Plant response rating, Barnyardgrass |
| --- | --- | --- |
| CCOC(=O)c1nc(-c2ccc(Cl)c(Cl)c2)nc(N)c1Br [Compound 66] | barnyardgrass (Echinochloa crus-galli) | 0 |
| CCOC(=O)c1nc(-c2ccc(OC)cc2)nc(N)c1Cl [Compound 98] | barnyardgrass (Echinochloa crus-galli) | 20 |
| CCOC(=O)c1nc(-c2ccccc2F)nc(N)c1Cl [Compound 106] | barnyardgrass (Echinochloa crus-galli) | 5 |
| CCOC(=O)c1nc(-c2cccc(C(F)(F)F)c2)nc(N)c1Cl [Compound 107] | barnyardgrass (Echinochloa crus-galli) | 0 |

Observed Plant response rating, Barnyardgrass, barnyardgrass (Echinochloa crus-galli), CC(C)=NOC(=O)c1nc(C2CC2)nc(N)c1Cl [Compound 146] : 90

Observed Plant response rating, Barnyardgrass, barnyardgrass (Echinochloa crus-galli), CS(=O)(=O)NC(=O)c1nc(-c2ccc(Cl)cc2)nc(N)c1Cl [Compound 131] : 20

Observed Plant response rating, Barnyardgrass, barnyardgrass (Echinochloa crus-galli), Nc1nc(C2CC2)nc(C(=O)OCCCOC(=O)c2nc(C3CC3)nc(N)c2Cl)c1Cl [Compound 142] : 75

Observed Plant response rating, Barnyardgrass, barnyardgrass (Echinochloa crus-galli), COC(=O)COC(=O)c1nc(C2CC2)nc(N)c1Cl [Compound 148] : 90

Observed Plant response rating, Barnyardgrass, barnyardgrass (Echinochloa crus-galli), CCOC(=O)c1nc(-c2ccc(CC)cc2)nc(N)c1Cl [Compound 99] : 0

Observed Plant response rating, Barnyardgrass, barnyardgrass (Echinochloa crus-galli), CCOC(=O)c1nc(-c2ccc(F)cc2)nc(N)c1Br [Compound 63] : 0

Observed Plant response rating, Barnyardgrass, barnyardgrass (Echinochloa crus-galli), CC(C)c1nc(N)c(Cl)c(C(=O)[O-])n1.[Na+] [Compound 109] : 10

Observed Plant response rating, Barnyardgrass, barnyardgrass (Echinochloa crus-galli), COC(=O)COc1nc(C2CC2)nc(N)c1Cl [Compound 112] : 0

Cited source: patent US8802597B2
